Tested on: S. coelicolor
assay name: Growth of S. coelicolor in CHELEX-washed, metal-free SMMC broth
Format: cell-based, Streptomyces coelicolor
experimental endpoint: prevention of growth arrest by addition of metal ion

{"structure": "[Ca+2]", "value": "prevented"}
{"structure": "[Mg+2]", "value": "not"}
{"structure": "[Ni+2]", "value": "not"}
{"structure": "[Fe+3]", "value": "prevented"}

* * *

Tested on: Streptomyces coelicolor A3(2)
assay name: 1,5-[^14C]-citrate transport assay in whole cells, Streptomyces coelicolor A3(2)
Type: cell-based
setup conditions: S. coelicolor grown with glucose (SMMG); for Fe^3+ SMMG supplemented with 36 μM FeCl3.6H2O
Experimental: S. coelicolor A3(2) cells were grown from stocks for 48-72 hours at 28° C. and 300 rpm. Cells were collected via centrifugation and washed twice with 50 mM chelexed piperazine-N,N′-bis(2-ethanesulfonic acid) (PIPES) buffer, pH 6.5. […] The filters were washed with 2×2 mL of 0.1 M LiCl solution and radioactivity was recorded using a liquid scintillation counter. In every experimental run, background radioactivity was gauged by adding 2 mls of LiCl prior to addition of the radiolabelled citrate. […]
Counter-ions that a name gives are not always drawn.
experimental endpoint: uptake of citrate or metal-citrate species above background

As a guide, the following entries are already answered.
{"molecule": "[Mg+2] [Mg^2+]", "value": "No uptake"}
{"molecule": "[Ca+2] [Ca^2+]", "value": "No uptake"}
{"molecule": "O=C(O)CC(O)(CC(=O)O)C(=O)O [free citrate]", "value": "No uptake"}
{"molecule": "[Pb+2] [Pb^2+]", "value": "No uptake"}
{"molecule": "[Ba+2] [Ba^2+]", "value": "No uptake"}
{"molecule": "[Ni+2] [Ni^2+]", "value": "No uptake"}

Q: Which measured uptake of citrate or metal-citrate species above background value corresponds to [Co+2] [Co^2+] ?
Ans: No uptake
